Experiment: basal 3T3-L1 adipocyte mitochondrial potential changes, profiling panel, cell-based, JC-1 fluorescence, 3T3-L1 adipocytes, 24 h, 100 nL compound (AID 1168); also: test concentration not given here
Conditions: JC-1 mitochondrial fluorescence, higher = more signal, called active from +8 up or from −8 down
Each entry below carries its reported z-score.
attribute measured: z-score

[[record]]
compound = "CC(C)=CCCC(C)=CCON=C1C[C@@H](O)[C@@H](O)[C@@H]2[C@@H]3C(=O)N(C(C)(C)C)C(=O)[C@@H]3CC[C@H]12"
attribute_measured = "z-score"
numeric_readout = 0.111

[[record]]
compound = "CCOC(=O)[C@H](CC(C)C)NC(=O)CCC1CC(OC(=O)NCc2cccc3ccccc23)CC2(CCCC(COC(=O)NCc3cccc(C(F)(F)F)c3)O2)O1 (stereo partly drawn)"
attribute_measured = "z-score"
numeric_readout = 0.346

[[record]]
compound = "CCOC(=O)NN=C1C[C@@H](O)[C@@H](O)[C@@H]2[C@@H]3C(=O)N([C@@H](C)c4ccccc4)C(=O)[C@@H]3CC[C@H]12"
attribute_measured = "z-score"
numeric_readout = 0.29

[[record]]
compound = "CO[C@@H]1C=CCC(=O)N[C@@H](C)C(=O)OC[C@@H](OC)[C@H](C)CCCC(=O)OC[C@H]1C"
attribute_measured = "z-score"
numeric_readout = 0.225

[[record]]
compound = "CO[C@H]1COC(=O)[C@@H](Cc2ccccc2)NC(=O)[C@@H](C)COC(=O)CCC[C@@H]1C"
attribute_measured = "z-score"
numeric_readout = 0.00303

[[record]]
compound = "CC(C)(C)N1C(=O)[C@H]2[C@H]3[C@H](O)C=CC(=O)[C@@H]3CC[C@H]2C1=O"
attribute_measured = "z-score"
numeric_readout = -0.211

[[record]]
compound = "CON=C1[C@H]2CCn3c(=O)n(-c4ccccc4)c(=O)n3[C@H]2[C@H](O)[C@@H]2O[C@H]12"
attribute_measured = "z-score"
numeric_readout = 1.86

[[record]]
compound = "COc1ccc(COC(=O)NN=C2C[C@@H](O)[C@@H](O)[C@@H]3[C@@H]4C(=O)N(C5CCCCC5)C(=O)[C@@H]4CC[C@H]23)cc1"
attribute_measured = "z-score"
numeric_readout = -1.69

[[record]]
compound = "COc1ccc(COC(=O)NN=C2C[C@@H](O)[C@@H](O)[C@@H]3[C@@H]4C(=O)N(c5ccc(F)cc5F)C(=O)[C@@H]4CC[C@H]23)cc1"
attribute_measured = "z-score"
numeric_readout = -0.982

[[record]]
compound = "COC(=O)CC=C[C@@H](C)[C@@H](C=NOC[C@H]1O[C@H](c2ccccc2)C=C[C@@H]1Oc1ccc(OC)cc1)OC"
attribute_measured = "z-score"
numeric_readout = -0.506

[[record]]
compound = "O=C1C=C[C@@H](O)[C@@H]2[C@@H]3C(=O)N(C[C@@H]4CCCO4)C(=O)[C@@H]3CC[C@@H]12"
attribute_measured = "z-score"
numeric_readout = 0.0236

[[record]]
compound = "CC(C)(C)N1C(=O)[C@H]2[C@H]3[C@H](O)[C@H](O)CC(=O)[C@@H]3CC[C@H]2C1=O"
attribute_measured = "z-score"
numeric_readout = -0.715

[[record]]
compound = "COC(=O)CC=C[C@@H](C)[C@@H](C=NO[C@H](C)c1cn([C@H](CO)Cc2ccccc2)nn1)OC"
attribute_measured = "z-score"
numeric_readout = -1.24

[[record]]
compound = "CO[C@H]1COC(=O)CCC[C@@H](C)[C@H](OC)COC(=O)[C@@H]2CCCN2C(=O)CC=C[C@@H]1C"
attribute_measured = "z-score"
numeric_readout = -0.0693

[[record]]
compound = "CO[C@@H]1COC(=O)[C@@H](C)COC(=O)[C@@H](C)NC(=O)CC=C[C@@H]1C"
attribute_measured = "z-score"
numeric_readout = -0.189

[[record]]
compound = "Cc1ccc(S(=O)(=O)N[C@H]2COC(=O)CC=C[C@H](C)[C@@H](NS(=O)(=O)c3ccc(C)cc3)COC(=O)CC=C[C@@H]2C)cc1"
attribute_measured = "z-score"
numeric_readout = -0.0603

[[record]]
compound = "CCOC(=O)NN=C1C[C@@H](O)[C@@H](O)[C@@H]2[C@@H]3C(=O)N(Cc4ccccc4)C(=O)[C@@H]3CC[C@H]12"
attribute_measured = "z-score"
numeric_readout = 0.42

[[record]]
compound = "CC[C@@H](c1ccccc1)n1c(=O)n2n(c1=O)[C@H]1[C@H](O)[C@@H]3O[C@@H]3C(=O)[C@H]1CC2"
attribute_measured = "z-score"
numeric_readout = -0.491

[[record]]
compound = "CCOC(=O)[C@H](Cc1ccccc1)NC(=O)CCC1CC(OC(=O)NCCc2ccc(F)cc2)CC2(CCCC(COC(=O)NCC3CCCCC3)O2)O1 (stereo partly drawn)"
attribute_measured = "z-score"
numeric_readout = 0.367

[[record]]
compound = "COc1ccc(O[C@H]2C=C[C@@H](c3ccccc3)O[C@@H]2CON=C(C)CCN2CCc3nc(-c4ccccc4)c(-c4ccccc4)cc3C2)cc1"
attribute_measured = "z-score"
numeric_readout = -1.39

[[record]]
compound = "CCOC(=O)[C@H](Cc1ccccc1)NC(=O)CCC1CC(OC(=O)NCc2ccc3c(c2)OCO3)CC2(CCCC(COC(=O)NCCc3ccccc3OC)O2)O1 (stereo partly drawn)"
attribute_measured = "z-score"
numeric_readout = -0.877

[[record]]
compound = "COc1cccc([C@H]2Oc3ccc(OC)cc3C(=NO[C@@H]3O[C@H](COC(C)=O)[C@@H](OC(C)=O)[C@H](OC(C)=O)[C@H]3OC(C)=O)[C@@H]2O)c1"
attribute_measured = "z-score"
numeric_readout = -3.37

[[record]]
compound = "CCC1=NOC(CCC2CC(OC(=O)NCc3cccc4c3OCO4)CC3(CCCC(COC(=O)NCCc4ccccc4OC)O3)O2)C1 (stereo not drawn)"
attribute_measured = "z-score"
numeric_readout = -0.197

[[record]]
compound = "COc1cccc([C@H]2Oc3ccc(OC)cc3C(=NOC[C@@H](O)COCc3ccco3)[C@@H]2O)c1"
attribute_measured = "z-score"
numeric_readout = 0.461

[[record]]
compound = "COC(=O)[C@H](C)NC(=O)CCC1CC(OC(=O)NCc2cccc3ccccc23)CC2(CCCC(COC(=O)NCC(c3ccccc3)c3ccccc3)O2)O1 (stereo partly drawn)"
attribute_measured = "z-score"
numeric_readout = -0.0303

[[record]]
compound = "CC(C)CON=C1C[C@@H](O)[C@@H](O)[C@@H]2[C@@H]3C(=O)N(c4ccc(F)cc4F)C(=O)[C@@H]3CC[C@H]12"
attribute_measured = "z-score"
numeric_readout = -0.131

[[record]]
compound = "CC(=O)OC[C@H]1O[C@@H](ON=C(C)CCN2CCCc3nc(C)c(C)cc32)[C@H](OC(C)=O)[C@@H](OC(C)=O)[C@@H]1OC(C)=O"
attribute_measured = "z-score"
numeric_readout = 0.553

[[record]]
compound = "COC(=O)[C@@H]1CC[C@H](C)[C@@H](c2ccc(C)cc2)N1C(=O)c1ccc(C=NO[C@H](C)c2cn([C@@H]3COC[C@H]3O)nn2)cc1"
attribute_measured = "z-score"
numeric_readout = -0.579


###

System: Neuregulin-1 EGF-like domain
Assay: binders of neuregulin-1 EGF-like domain, primary screen, biochemical, small-molecule microarray, 635 nm fluorescence (AID 1081);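 also: binding of the protein to compounds printed on small-molecule microarray slides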
Conditions: small-molecule microarray binding, higher = more signal
attribute measured: composite z-score

[[record]]
compound = "COC(=O)CC=C[C@@H](C)[C@H](OCc1cccc(-c2ccccc2)c1)C1CCCCC1"
numeric_readout = 0.359

[[record]]
compound = "CC(CCN1CCCCc2nc(C)c(C)cc21)=NOC[C@@H](O)COCc1ccco1"
numeric_readout = 0.298

[[record]]
compound = "CCOC(=O)C1=NO[C@]2(C=C(Br)C3(OCCCO3)[C@H]3O[C@H]32)C1"
numeric_readout = -0.208

[[record]]
compound = "CCOC(=O)CCN1C(=O)[C@H]2[C@H]3[C@H](O)[C@H](O)CC(=NOCC(C)C)[C@H]3CC[C@H]2C1=O"
numeric_readout = 0.176

[[record]]
compound = "COC(=O)CC=C[C@@H](C)[C@@H](C=NO[C@@H](C)c1cc(-c2c(C)cc(C)cc2C)no1)NS(=O)(=O)c1ccc(C)cc1"
numeric_readout = -0.631

[[record]]
compound = "C=C(C)C(=O)OCC1CN2[C@@H](CC[C@@H](C)[C@@H]2c2ccc(Br)cc2)C(=O)O1 (some centres not stated)"
numeric_readout = 0.546

[[record]]
compound = "O=C1[C@H]2[C@H]3[C@H](O)[C@H](O)CC(=NOC[C@@H](O)COCc4ccco4)[C@H]3CC[C@H]2C(=O)N1C[C@@H]1CCCO1"
numeric_readout = 1.15

[[record]]
compound = "CC(CCN1CCCc2nc(C)c(C)cc21)=NOC(C)CN1CCCCc2nc(C)c(C)cc21 (configuration not stated)"
numeric_readout = 1.13

[[record]]
compound = "CO[C@@H]1COC(=O)CC=C[C@@H](C)[C@@H]2C=C[C@H](O)[C@@H](COC(=O)CC=C[C@H]1C)O2"
numeric_readout = 0.824

[[record]]
compound = "COC(=O)[C@H](C)NC(=O)CCC1CC(OC(=O)NCCc2ccc(F)cc2)CC2(CCCC(COC(=O)NCc3cccc(C(F)(F)F)c3)O2)O1 (some centres not stated)"
numeric_readout = 0.729

[[record]]
compound = "COc1cccc([C@@H]2Oc3ccc(OC)cc3C(=O)[C@H]2O)c1"
numeric_readout = 1.04

[[record]]
compound = "CCOC(=O)[C@H](CC(C)C)NC(=O)CCC1CC(OC(=O)NCc2cccc3ccccc23)CC2(CCCC(COC(=O)NCC3CCCCC3)O2)O1 (some centres not stated)"
numeric_readout = 0.907

[[record]]
compound = "CC(C)(C)N1C(=O)[C@H]2[C@H]3[C@H](O)[C@H](O)CC(=O)[C@@H]3CC[C@H]2C1=O"
numeric_readout = 0.304

[[record]]
compound = "O=C1C[C@@H](O)[C@@H](O)[C@@H]2[C@@H]3C(=O)N(C[C@@H]4CCCO4)C(=O)[C@@H]3CC[C@@H]12"
numeric_readout = 0.459

[[record]]
compound = "CCOC(=O)[C@H](Cc1ccccc1)NC(=O)CCC1CC(OC(=O)NCc2ccc3c(c2)OCO3)CC2(CCCC(COC(=O)NCCC(C)C)O2)O1 (some centres not stated)"
numeric_readout = 1.06

[[record]]
compound = "CCCCc1nc2c(c3c1C[C@H](C)OC3)CN(CCOc1ccccc1)CC2"
numeric_readout = 0.881

[[record]]
compound = "CCCNC(=O)OC[C@H]1O[C@H](c2ccccc2)C=C[C@@H]1Oc1ccc(OC)cc1"
numeric_readout = -0.0407

